System: CEM cells HIV-1 protection, formazan growth assay
Experiment: NCI AIDS Antiviral Assay;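 active = compounds giving half or more protection of infected cells from virus-caused growth loss, again on retest; inactive = the rest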
API: response.call in 1.0 (active), 0.0 (inactive)

Exam item: # fetch the recorded call for O=[N+]([O-])c1cccc2nc3ccccc3c(NCCc3ccccn3)c12 here
Marked response: 0.0

Exam item: Next compound up: CC(C)CCC[C@@H](C)[C@H]1CC[C@H]2[C@@H]3CCC4C[C@@H](OP(=O)(O)OCCC=C(c5cc(Cl)c(O)c(C(=O)O)c5)c5cc(Cl)c(O)c(C(=O)O)c5)CC[C@]4(C)[C@H]3CC[C@]12C (stereo partly drawn)
Marked response: 0.0

Exam item: Same lookup for Cc1nc2ccccc2c(=O)n1NC(=S)NC1CCCCC1 , please.
Marked response: 0.0

Exam item: // repeat for CCCNC(=O)C(C)(Cl)C(=O)c1ccccc1O (stereo not drawn) and report
Marked response: 1.0

Exam item: // next record CC(C)=CCC1=C(O)C(=O)C(CC=C(C)C)=C(O)C1=O
Marked response: 0.0

Exam item: Same read-out for C=C(C)[C@@H]1CC[C@]2(CNC(=O)CC3(CC(=O)O)CCCC3)CC[C@]3(C)[C@H](CC[C@@H]4[C@@]5(C)CC[C@H](NC(=O)CC6(CC(=O)O)CCCC6)C(C)(C)[C@@H]5CC[C@]43C)[C@@H]12 ?
Marked response: 0.0

Exam item: # repeat for COC1(OC)N=C(N)C2(C#N)C3(C(=O)N(C(C)C)N=C3C)C12C#N (stereo not drawn)
Marked response: 0.0

Continuing:
Exam item: Per the records of this test, what outcome belongs to CC(=O)Nc1cccc(N2C(=O)/C(=C\c3cccc(Oc4ccccc4)c3)SC2c2ccccc2)c1 (stereo not drawn) ?
Marked response: 0.0
